Where these numbers come from: the domain aggregation screens of Martell et al. (2025)

What soluble fraction (log2) was measured for each of the following?
Assay: soluble fraction after stress (log2 fold change); higher = more stays soluble; pooled small domains, quantitative proteomics
Conditions: stress: 50 degC
Returns: the value as a bare number; no unit string appended.

Query: Request the reported soluble fraction (log2) associated with "HMTDDPGLSRAENRELQTLLLDRGHDIGQPDGLIGAKTRAAIRAEQSRLNMPVNGRGGQKLLRALRL"
Response: 0.372

Query: Request the reported soluble fraction (log2) associated with "HMDYIITHYPDNKRFETQVDGVVAFVQYRLSGDKLDIIHTIVPPAIGGRGIAAALVKYAYDYAIENGMK"
Response: -0.76

Query: Request the reported soluble fraction (log2) associated with "HMANTAKVNVDTANLRETADENSKILKQLSLNDNLEVVEETGDWYKVKNSNVTGYVRKDLVTVEN"
Response: 0.371

Query: Request the reported soluble fraction (log2) associated with "HMVPPVVRTIYGAGGKMTATFLFPGGYEVDAASGAELPGKYRVESISLDQVVLTDKDGNRVPVGFSSVAPT"
Response: 0.0614

Query: Request the reported soluble fraction (log2) associated with "HMFERIYVFSRDGDIIELPKGSTVLDFAYHVHTHVGNRAQAARVNKRYVPLTYQLKTGEQVEIIIS"
Response: -1.2

Query: Request the reported soluble fraction (log2) associated with "HMEMLQRFIFLENVSSTQVESAIKELHPNLNLKRVKLSFPGADTVLLKGPKQDLELAEELIRHLDRSE"
Response: -0.0342

Query: Request the reported soluble fraction (log2) associated with "HMEERDMKGSISDLVERYADQLTDEQLEEIVLGIKNGLLEEDVKSYFFLPAEDMRRIRTALEQVR"
Response: 0.00866

Query: Request the reported soluble fraction (log2) associated with "HMGQDLEAFLLKAVGQLDQGDGVTLDALLKVAVSNGGFVREVAEAKLDDMLDAGTLDEPRFGWFRVGAT"
Response: -0.742

###

Test: soluble fraction after stress (log2 fold change); higher = more stays soluble; pooled small domains, quantitative proteomics
Conditions: stress: 50 degC
assayMetric: soluble fraction (log2)
Returns: the value as a bare number; no unit string appended.

Query: Request the reported soluble fraction (log2) associated with "HMKHRTQMDIQQLPAIEGKGGFEYKISIIHLSTRIKYSEIHDNYNTTTIAKVYENAIERLPPF"
Response: -2.24

Query: Request the reported soluble fraction (log2) associated with "HMKIAPRTAENQQLRKMILEIYTTSKKRVGPAKVRRMLLRDYGISISIGRVYRLMSTMNLPKMS"
Response: -0.258

Query: Request the reported soluble fraction (log2) associated with "HMNDTPPELRAALDLLGLKWPLASVELRARYKDLAKQHHPDATGGDKQAEERLKDINRAYSLLKHRLAKQ"
Response: -0.07

Query: Request the reported soluble fraction (log2) associated with "HMGSDAFDISKLNLVGKTKESAESLLKENGFSVDTKEEASDTAAKGTVISYSPTKPKNGERVTLTVSSGK"
Response: 0.337

Query: Request the reported soluble fraction (log2) associated with "HMDRVTYPVSFNGKVRFQLELDAGMNAKEVETAALGHEKTAAQIEGKTIRKVIVVPGRIINIVV"
Response: -0.259

Query: Request the reported soluble fraction (log2) associated with "HMSGPDGLTEREIEVLRLLASGLSNRAIGERLYISTNTAANHVRSILLKTGAANRTQAAMYAADHEML"
Response: -1.37

Query: Request the reported soluble fraction (log2) associated with "HMLSDSDTLRDLYLSEQIWNVGDLIRVKGKNDDTHPSWEIIRRGTNYITAIDENYKSHKVWLHDIDI"
Response: -1.17

Query: Request the reported soluble fraction (log2) associated with "HMGRRSKAMLSSALDAVPGLGEMRRKALISQFGSLKKLRGATPEEIAAVPGIGPKLAAAVHEAVSG"
Response: 0.0505

Query: Request the reported soluble fraction (log2) associated with "HMIIIMKKSATNSEVRKVIERAEKEGLTVQVNQLEKQQVLGLVGDTRLIQDVAFLRYEGVENVERI"
Response: -0.776

Query: Request the reported soluble fraction (log2) associated with "HMDIMTVGERVKKLAEKQGISLRELAKKAELSYNTVYSITRRGSERVAPDTISRLANALGVNVNELT"
Response: 0.0708

Query: Request the reported soluble fraction (log2) associated with "HMSVLEHVSGNVRRLRLQAGLSQEALARAASVSRRMLVGIESGDVNVSLSTLDRIAAALGVLFPDLVQAP"
Response: -1.52

Query: Request the reported soluble fraction (log2) associated with "HMEPKIKQIVPNVVNYPVEDAKNVLVNSGLIVQIRGQGNIVYDQVPKGGAEVTRGTTVILDLNPPPGA"
Response: 0.42

Query: Request the reported soluble fraction (log2) associated with "HMLARPTANELVKEMQRRAKEQRTELPPDAARDLLERSGQDQFLLGNEVDKLAALSGYTTITREMVAQAGT"
Response: 0.186

Query: Request the reported soluble fraction (log2) associated with "HMLPVLEIGTMIRIIRQPHFGTIARVVALPEELTKVESETLVRILDAEFDDGTRVRIPRANVEVIE"
Response: -1.25

Query: Request the reported soluble fraction (log2) associated with "HMDATFKVRVSVPDLNIRSGPGTNYAATGRFTGVGVFTITAVQSGQGSSSGWGKLKSGAGWIALDYAKR"
Response: -2.39

Query: Request the reported soluble fraction (log2) associated with "HMDPSHGESRENLDIMRIIDETHLEYPSWGYRKMTDHLRANHGYTINRKRVRRLMRLMDIIALFPG"
Response: -1.47

Query: Request the reported soluble fraction (log2) associated with "HMEISLEAKMAEVREQVRGLAGINFRTLLEMQASRSNIIVTFLAILELMKIGAIQIRQEEIFGEIIIDSRD"
Response: -0.222

###

Assay: soluble fraction after stress (log2 fold change); higher = more stays soluble; pooled small domains, quantitative proteomics
Conditions: stress: 50 degC
What soluble fraction (log2) was measured for each of the following?
Returns: the value as a bare number; no unit string appended.

Query: Request the reported soluble fraction (log2) associated with "HMITDNEFLRIVSFLKQRYGIDMSQKKVIMNGRLENYLKSGGWSSFDEYMNDVEKDTSGDLEKTLVNFLTT"
Response: -0.537

Query: Request the reported soluble fraction (log2) associated with "HMVSIGSQVAKRRRELRLTQQNLAEKMGVSFQAISSWEREEFLPDINKLQKLAAILNTKISYLLEE"
Response: -1.3

Query: Request the reported soluble fraction (log2) associated with "HMHSGFHSAILDVDRAVKEGKTLYEALNKYPYIFDETFRSLVRAGEASGELPSILSKLALYLEEQSK"
Response: -1.16

Query: Request the reported soluble fraction (log2) associated with "HMDQPLIEPLSERELEVLSLIAAGYSNAEIAERLVIAVGTVKRHINNLYGKLGAGSRTQALAIAREIGLM"
Response: 0.0589

###

Assay: soluble fraction after stress (log2 fold change); higher = more stays soluble; pooled small domains, quantitative proteomics
Conditions: stress: 50 degC
assayMetric: soluble fraction (log2)
Returns: the value as a bare number; no unit string appended.

Query: Request the reported soluble fraction (log2) associated with "HMAPLADQIVDLLKEHDGFLPLHDNSSPEDIRATVGTSKKAFKQAIGGLFREKRIVIGPTGIRLIS"
Response: -0.378

Query: Request the reported soluble fraction (log2) associated with "HMENMTLGQRIQALRKQHGLSQEGLGERLGVSRQAISRWEMDGAVPEVDKLIAMARLFGVSLNQLLGVE"
Response: -0.193

Query: Request the reported soluble fraction (log2) associated with "HMGAGEQMLPKVMFAEGDRVVHKVFGEGTVVTVDRPAQTYDIQFDKLRGTRRIMFRAELEGI"
Response: -0.554

Query: Request the reported soluble fraction (log2) associated with "HMHSFFGDNIKKLRTAKKMSQEQLADIFGITKAGISYWETGRSEPNFATVQKLADFFGVTTSDLLGEA"
Response: -0.194

Query: Request the reported soluble fraction (log2) associated with "HMGDIFTAEDAKERIDYSGVDGIMLARGIFGNPWLIRDIREYLEYGKILHPVTQLDRVNMAIEHTRKT"
Response: 0.0388

Query: Request the reported soluble fraction (log2) associated with "HMYSNDEIVNYLKNYIFDNFNLNELSDEELEEKIAELVQQQFAGQLLSLDEKVKLVNQVYSSIR"
Response: 0.0129

Query: Request the reported soluble fraction (log2) associated with "HMTNNDIIRRVRYLFNFSDKQVIELFKLANETVSIEHVSGWLKKEEDPTLIEISDRDLAVFLNGLII"
Response: 0.237

Query: Request the reported soluble fraction (log2) associated with "HMSKHATLLEALAELTVKLKPHTQLPSERQLSEDFGVSRMTLRRAIDVMQSRGYIYTVPSKGLYVSEP"
Response: -1.59

Query: Request the reported soluble fraction (log2) associated with "HMELEAFPNPTDMFLSFTTKEKTPLAIYDINGKQVLYVEQITSSSKINVSKLSEGVYFAKTNQGTVKWVK"
Response: -1.67

Query: Request the reported soluble fraction (log2) associated with "HMESGNLIFTNAPIADVVNAIETRYGKKLQASNQTSDLQFTGIFKNTDEFSTVVKTIEIALGLQFEV"
Response: -1.19

Query: Request the reported soluble fraction (log2) associated with "HMNVEVDSIGDDDFLVKVSAGTSTEHRVTLTDAYWEQIWSSSLPKKEIISLSFAFLLEREPNSSIMRT"
Response: 0.0604

Query: Request the reported soluble fraction (log2) associated with "HMKEMTAKQIDMFSDKLSKLESFQSHYIADAGVSVTEYKQAIAAKLQDQFYVEAWGKYLADVGFT"
Response: -0.505

Query: Request the reported soluble fraction (log2) associated with "HMAYMETIERVEALAPGTKFNLKALFGTDWTQSRGTKLTLGKTFYEMVESGYVKTAKVLGKDSSNIMQYER"
Response: -0.107

Query: Request the reported soluble fraction (log2) associated with "HMSPAVEDYLEQIHNLIAQKGYARVVDIAGNLKISQASVTNMIQRMDADGLVVYERYRGVVLTETGRK"
Response: -1.3

Query: Request the reported soluble fraction (log2) associated with "HMTEPIESVTTIAGRRIPYRLVRSLRARRMRMTIKESQVTVTLPRGVPLGEAERFLQQNAAWLFKQLDKP"
Response: -2.22

Query: Request the reported soluble fraction (log2) associated with "HMNQKVRQLLSQAQAEMERKNYKQAIKLLDQALAIEPHSGELHFMKGYAWMSMGEFEKALESLYEARNYA"
Response: -0.399

Query: Request the reported soluble fraction (log2) associated with "HMKVSNWYFNGAPSATTPPTSQWTTEKDKKAHIGDTFTSLDKSPSPNAGKSWRYTPSYTWEEIV"
Response: 0.344

Query: Request the reported soluble fraction (log2) associated with "HMPELTASDEADLKALVGGDQGFEQMANWARSNLGEEEINRFDAVVDSNNKDAIHMAIQAMQARMNA"
Response: 0.0174

Query: Request the reported soluble fraction (log2) associated with "HMSDEINYVIQINGKNRAEAEFGANLDKESIENLALEHERIKELLNGLTVRKIIVVPKKLVNIVA"
Response: -0.312

Query: Request the reported soluble fraction (log2) associated with "HMVYVPTKAEVSQQFQDASKARFDERYAIVELADGRRTMAPLAFLTKADHAWLKQLASTSPLPKGK"
Response: 0.0196

Query: Request the reported soluble fraction (log2) associated with "HMKKTTEFAVTPEFQQRLEASPELKAAFQALTPGRQRAHLLFFAAPKQAQTRQARIEKSLPQIMAGKGLN"
Response: -0.184

Query: Request the reported soluble fraction (log2) associated with "HMGFEALRSRHRITAREMEVLQHMLAGRSNAEIGHTLGLSERTVKTHITSIFNKLGVDSRAQLGYMLK"
Response: -0.498

Query: Request the reported soluble fraction (log2) associated with "HMKKHAPSLMRQIRRELKEGKSPESLLSKAKLISDSYYRSLSFYLLIPYLSPNSKQFQEAISLAGKDID"
Response: 0.255

Query: Request the reported soluble fraction (log2) associated with "HMRALPFSFANRHGVLIREISDGVAHAVYRIGSSPLGLAEARRFVGMPLMLTPVAREAFDSLLQQTYEQG"
Response: -1.6

Query: Request the reported soluble fraction (log2) associated with "HMIITLNIENLKRARENAGLTQTQAAQKIGVSDGTYKNYEQGKREPNGDKIVTIANAFGVTTDYLLGR"
Response: -0.334

Query: Request the reported soluble fraction (log2) associated with "HMKKTFSKSSVMEAIFRDIPNITIPNAHEVYTLIKNISVMNKRKSITSEDIEKAYDALGLTP"
Response: -0.865

Query: Request the reported soluble fraction (log2) associated with "HMFEYDEEEYEKLGPNADLTIKSMTDWGQSLVRKGVWSESDFEEFKIMGGTAQGLRALQKVRSYY"
Response: -0.451

Query: Request the reported soluble fraction (log2) associated with "HMFQPFFENLRKASIPVSLREYLTFLEGMKKGLVTYDIEAFYFLARAAMVKDERNIDKFDRAFSATFKG"
Response: -0.287

Query: Request the reported soluble fraction (log2) associated with "HMGDLVFDFVHGVHKAAEVEKELVMQALRFTHGNVSRAARLIGMQRSSLRYRIERYRLDAFVMEVAN"
Response: 0.3

Query: Request the reported soluble fraction (log2) associated with "HMKELTELIEKIKLRRLELGLSYQELSDLTGINKSTLQRYETGFIKKVPINQVQIIAKALNVTPGYLMG"
Response: -0.28

Query: Request the reported soluble fraction (log2) associated with "HMDNVINDGMQVRFTGNVDINGTPLKIYDRIYTAEGISDDTVVLMLGNDVYARVYLSDVVPAD"
Response: -0.405

Query: Request the reported soluble fraction (log2) associated with "HMSDPFSPTTTLKNRAKSVLSVDSFEDFKLFIKKMWQEKKEGVYQNPNVETWKDWDNISVKDAKILISLI"
Response: -0.474

Query: Request the reported soluble fraction (log2) associated with "HMAQRAADEARTHEILGLLRQARAALDHGGTARAARLRASIAEKLPAAPALPAWFARQLEQVDSQLAELQD"
Response: -0.432
